These data points were gathered from paper PMC8070033.

Test system: Human fibroblast BJ
Assay: Cytotoxicity MTT assay, BJ human fibroblast cells
Format: cell-based
Conditions: 48 hrs, ± SD from three independent experiments, NA: did not show activity at 30 µM
pIC50: −log10 of the molar value.
Listing of entries alongside the reported pIC50.
Observable: pIC50

1) O=C(CC(c1cc2ccccc2s1)c1c[nH]c2ccccc12)c1ccc(C(F)(F)F)cc1 (stereo not drawn) = < 4.30
2) O=C(CC(c1cc2ccccc2o1)c1c[nH]c2cc(F)ccc12)c1ccc(Cl)cc1 (stereo not drawn) = < 4.52
3) COc1cccc(C(=O)CC(c2cc3ccccc3o2)c2c[nH]c3ccccc23)c1 (stereo not drawn) = < 4.52
4) O=C(CC(c1cc2ccccc2o1)c1c[nH]c2ccccc12)c1ccc(Cl)cc1 (stereo not drawn) = < 4.52
5) O=C(CC(c1cc2ccccc2s1)c1c[nH]c2ccccc12)c1ccc(F)cc1 (stereo not drawn) = < 4.30
6) O=C(CC(c1cc2ccccc2s1)c1c[nH]c2ccccc12)c1ccc(Br)cc1 (stereo not drawn) = < 4.52
